- System: M19-MEL
- test_method_notes: NCI tumour cell line growth inhibition, 48 h
The source made the active and inactive calls. Rule as the data show it: active = GI50 up to about 1.1 µM and inactive = higher.
endpoint: GI50

In [3]: df
Out[3]:
                                   molecule  endpoint               result
0         O=C(COc1ccccc1)NS(=O)(=O)c1ccccc1      GI50  > 100 µM (inactive)
1  CCN(CC)CC(=O)NC1c2ccccc2Oc2c(C)cccc21 (stereo not given)      GI50  > 100 µM (inactive)
2                 Cc1cccc(-c2nnc(S)[nH]2)c1      GI50  > 100 µM (inactive)
3    Cc1nc2ccccc2c(=O)n1NC(=S)Nc1cccc(Cl)c1      GI50  > 100 µM (inactive)

Notebook: `Cc1noc(C)c1C1=CCCCc2ccccc21` , GI50 read as 90.2 µM (inactive)

---

- Tested on: HCC 2998
- test_method_notes: NCI tumour cell line growth inhibition, 48 h
Where a name gives a salt, the structure may show the parent alone. Active and inactive are the calls of the source. No stated cut-off is given here; in the data, active = GI50 up to about 1.1 µM and inactive = higher.
API: response.call in 1.0 = active, 0.0 = inactive

Please review the following examples before continuing.
compound	class_label
CN(C)[C@H]1CC[C@H]2[C@@H]3CCC4C[C@@H](NC(=O)NC(Cc5ccccc5)c5nccs5)CC[C@]4(C)[C@H]3CC[C@]12C (some centres undefined)	0.0
CN(C)c1ccc(-c2[nH]c(=O)c3ccccc3[n+]2C)cc1	0.0
CCOC(=O)C1Oc2ccc([N+](=O)[O-])cc2C1(C)O (centres undefined)	0.0
CCCCCn1cnc2c1S(=O)(=O)N(C)C(NC(=O)c1ccccc1)=N2	0.0
COc1cc2c(cc1OCCCCCOc1cc3c(cc1OC)C(=O)N1CCC[C@H]1C(=O)N3)N=C[C@@H]1CCCN1C2=O	1.0
CC(C)(CO)NC1=C(Cl)C(=O)c2c(O)ccc(O)c2C1=O	0.0
CC(=O)OC12c3ccccc3C(c3ccccc31)C1C(=O)N(c3ccccn3)C(=O)C12 (centres undefined)	0.0
CN(C)C(=N)NC(N)=S	0.0

Answer briefly: the call reported for `O=C(O)CCCSc1nc2ccccc2s1` in this assay. 0.0

Answer briefly: the call reported for N#CC(C(=O)CCC(=O)Nc1ccc(Cl)cc1)c1ccc(Cl)cc1 (centres undefined) in this assay. 0.0

Answer briefly: the call reported for `NCCCCNCCCN1CC1` in this assay. 0.0

Answer briefly: the call reported for `CC(C)(C)COS(=O)OCC(C)(C)C` in this assay. 0.0

Answer briefly: the call reported for C=C1C[C@@H]2CC[C@@]34C[C@H]5O[C@H]6[C@@H](O3)[C@H]3O[C@H](CC[C@@H]3O[C@H]6[C@H]5O4)CC(=O)C[C@@H]3[C@@H](OC)[C@@H](C[C@H](O)CN)O[C@H]3C[C@H]3O[C@@H](CC[C@@H]1O2)C[C@@H](C)C3=C [ERIBULIN MESYLATE] in this assay. 1.0

Answer briefly: the call reported for `Oc1cc(-c2ccccn2)nc2ccc(Cl)cc12` in this assay. 0.0

Answer briefly: the call reported for O=C(Nc1nnc(-c2ccc(Cl)cc2)o1)C(SC(=S)N1CCCCC1)c1ccccc1 (centres undefined) in this assay. 0.0

Answer briefly: the call reported for `Clc1ccc(-c2nn3c(COc4cccc(OCc5nnc6sc(-c7ccc(Cl)cc7)nn56)c4)nnc3s2)cc1` in this assay. 0.0

Answer briefly: the call reported for `O=C(O)/C=C/c1ccc(Oc2ccccc2C(=O)O)o1` in this assay. 0.0

Answer briefly: the call reported for CCCCCC1CC=CC(NC(=O)OCc2ccccc2)C1/C=C/CCCC1OCCO1 (centres undefined) in this assay. 0.0

Answer briefly: the call reported for CCC(=O)c1c(NOC2OCC(OC(C)=O)C(OC(C)=O)C2OC(C)=O)nc(OC)n(C)c1=O (centres undefined) in this assay. 0.0
